Values from patent US20180155344A1

Target: human TPH1 (Homo sapiens, UniProt P17752)
Sequence (P17752 whole entry): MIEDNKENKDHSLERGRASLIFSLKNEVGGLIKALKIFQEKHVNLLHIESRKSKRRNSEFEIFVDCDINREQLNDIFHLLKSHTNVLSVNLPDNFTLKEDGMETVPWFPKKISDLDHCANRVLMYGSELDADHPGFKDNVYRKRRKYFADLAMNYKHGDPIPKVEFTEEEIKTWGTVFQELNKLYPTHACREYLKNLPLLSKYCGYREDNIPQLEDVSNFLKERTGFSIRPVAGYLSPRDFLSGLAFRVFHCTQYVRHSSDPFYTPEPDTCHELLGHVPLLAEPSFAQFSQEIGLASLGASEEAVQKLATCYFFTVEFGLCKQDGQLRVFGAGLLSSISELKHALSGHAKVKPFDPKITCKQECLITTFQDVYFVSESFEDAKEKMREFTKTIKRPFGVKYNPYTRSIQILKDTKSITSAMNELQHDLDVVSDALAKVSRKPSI
Experiment: biochemical
EXPERIMENTAL_ENDPOINT: IC50

[ask] Return IC50 for the following compound: CCc1ncc(C2c3c(nc4cc(C(F)(F)F)ccn34)CCN2C(=O)COc2ccc(CN3CCOCC3)cc2Cl)cn1 (stereo not shown)
[reply] 415 nM

[ask] Return IC50 for the following compound: Cc1ccc(C2c3c(nc4cc(C(F)(F)F)ccn34)CCN2C(=O)COc2ccc3ccccc3c2)cn1 (stereo not shown)
[reply] 26 nM

[ask] Return IC50 for the following compound: CCc1ncccc1OCC(=O)N1CCc2nc3ccccn3c2C1c1ccc(Cl)cc1F (stereo not shown)
[reply] 55 nM

[ask] Return IC50 for the following compound: CCc1nc(NS(C)(=O)=O)ccc1OCC(=O)N1CCc2nc3ccc(F)cn3c2C1c1sc(C)nc1C (stereo not shown)
[reply] 48 nM
